Data credit: ChEMBL document CHEMBL3779771

# target.or.test.system: Retinoic acid receptor RXR-alpha (Homo sapiens) (UniProt P19793)
# experimental.details: Agonist activity at histidine-tagged ligand binding domain of human RXRalpha expressed in Escherichia coli BL21 (DE3) by luciferase reporter gene assay relative to bexarotene
property: Efficacy (%)

Solved cases below.
compound	Efficacy [%]
CC1(C)CCC(C)(C)c2cc3c(cc21)OC1CCCCC31c1ccc(C(=O)O)c(F)c1 (racemic)	88
CC1(C)CCC(C)(C)c2cc3c(cc21)O[C@@H]1CCC[C@]31c1ccc(C(=O)O)cc1	119

(1) CC1(C)CCC(C)(C)c2cc3c(cc21)O[C@H]1CCC[C@@]31c1ccc(C(=O)O)cc1
(2) CC1(C)CCC(C)(C)c2cc3c(cc21)O[C@@H]1CCCC[C@]31c1ccc(C(=O)O)cc1
Problem: # query: argmin of Efficacy over 1 and 2 Answer by stating the label of the chosen item.
Solution: 1
(1: 59%, 2: 94%)

(A) CC1(C)CCC(C)(C)c2cc3c(cc21)OC1CCCC31c1ccc(C(=O)O)cc1 (racemic)
(B) CC1(C)CCC(C)(C)c2cc3c(cc21)OC1CCCCC31c1ccc(C(=O)O)cc1 (racemic)
Problem: # query: argmin of Efficacy over A and B Answer by stating the label of the chosen item.
Solution: A

====

# target.or.test.system: UniProt P19793
# Sequence (P19793 whole entry): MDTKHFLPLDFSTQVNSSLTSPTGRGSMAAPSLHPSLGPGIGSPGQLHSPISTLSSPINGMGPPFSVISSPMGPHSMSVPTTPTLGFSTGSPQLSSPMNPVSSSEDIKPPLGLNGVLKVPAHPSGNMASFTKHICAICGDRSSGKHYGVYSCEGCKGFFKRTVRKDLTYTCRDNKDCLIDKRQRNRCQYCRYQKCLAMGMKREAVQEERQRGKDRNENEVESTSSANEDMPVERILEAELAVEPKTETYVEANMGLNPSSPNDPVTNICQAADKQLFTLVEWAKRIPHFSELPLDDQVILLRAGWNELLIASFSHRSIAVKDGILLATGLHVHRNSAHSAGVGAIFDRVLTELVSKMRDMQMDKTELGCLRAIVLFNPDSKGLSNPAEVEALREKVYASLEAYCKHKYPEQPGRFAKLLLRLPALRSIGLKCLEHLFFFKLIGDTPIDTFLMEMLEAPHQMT
# experimental.details: Agonist activity at histidine-tagged ligand binding domain of human RXRalpha expressed in Escherichia coli BL21 (DE3) by luciferase reporter gene assay
property: EC50 (nM)

compound	target.or.test.system	property	experimental.result
CC1(C)CCC(C)(C)c2cc3c(cc21)OC1CCCCC31c1ccc(C(=O)O)cc1 (racemic)	UniProt P19793	EC50	50.1

(A) CC1(C)CCC(C)(C)c2cc3c(cc21)OC1CCCCC31c1ccc(C(=O)O)c(F)c1 (racemic)
(B) CC1(C)CCC(C)(C)c2cc3c(cc21)OC1CCCC31c1ccc(C(=O)O)cc1 (racemic)
Problem: Lab notebook, comparison: A versus B , higher EC50 goes to which? Answer by stating the label of the chosen item.
Solution: A

====

# target.or.test.system: Nuclear receptor subfamily 4 group A member 2/Retinoic acid receptor RXR-alpha (Homo sapiens, UniProt P19793+P43354)
# experimental.details: Agonist activity at Renilla luciferase/GFP2-tagged RXRalpha/Nurr1 (unknown origin) expressed in HEK293T cells by BRET2 assay relative to bexarotene
# Format: cell-based
# test.settings: HEK-293T
property: Efficacy (%)

(P) CC1(C)CCC(C)(C)c2cc3c(cc21)O[C@H]1CCC[C@@]31c1ccc(C(=O)O)cc1
(Q) CC1(C)CCC(C)(C)c2cc3c(cc21)O[C@@H]1CCCC[C@]31c1ccc(C(=O)O)cc1
Problem: Lab notebook, comparison: P versus Q , higher Efficacy goes to which? Answer by stating the label of the chosen item.
Solution: Q
(Q: 96%, P: 49%)
